Here the recorded PET hydrolysis product formed is given for each entry.
# test.name: PET hydrolysis product formed (TPA+MHET+BHET, UV-Vis) per mg enzyme (mmol/mg enzyme); higher = more PET depolymerisation activity; extreme values may be limits of the assay
# condition.description: PET substrate: aFilm; 60 °C; pH 4.5; 2 h
Just the number.

Record excerpt, results attached:
residues: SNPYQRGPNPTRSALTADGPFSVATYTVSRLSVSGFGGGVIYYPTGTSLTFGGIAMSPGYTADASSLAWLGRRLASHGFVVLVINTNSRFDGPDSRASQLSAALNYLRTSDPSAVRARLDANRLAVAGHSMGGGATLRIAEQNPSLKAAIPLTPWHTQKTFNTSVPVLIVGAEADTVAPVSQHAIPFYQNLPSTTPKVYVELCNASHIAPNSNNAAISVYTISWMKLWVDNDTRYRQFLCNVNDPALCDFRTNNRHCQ [LCC-ICCG DAQI]
measured.result: 0
//
residues: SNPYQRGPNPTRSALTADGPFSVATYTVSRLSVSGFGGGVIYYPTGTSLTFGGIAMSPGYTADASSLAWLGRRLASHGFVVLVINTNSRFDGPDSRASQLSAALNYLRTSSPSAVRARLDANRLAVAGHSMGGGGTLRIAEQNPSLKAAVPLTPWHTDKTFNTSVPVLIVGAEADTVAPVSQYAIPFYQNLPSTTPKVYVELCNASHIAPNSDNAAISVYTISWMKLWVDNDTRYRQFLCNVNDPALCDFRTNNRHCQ [LCC-A2]
measured.result: 0

Please look up its PET hydrolysis product formed: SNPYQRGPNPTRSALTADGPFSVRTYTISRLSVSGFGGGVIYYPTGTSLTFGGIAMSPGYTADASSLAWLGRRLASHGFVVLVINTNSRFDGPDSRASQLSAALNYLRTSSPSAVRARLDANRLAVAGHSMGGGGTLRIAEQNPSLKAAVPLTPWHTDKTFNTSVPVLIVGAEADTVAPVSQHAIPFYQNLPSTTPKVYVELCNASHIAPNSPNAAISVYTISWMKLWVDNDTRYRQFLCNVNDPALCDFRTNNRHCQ [LCC-ICCG RIP]
0

Please look up its PET hydrolysis product formed: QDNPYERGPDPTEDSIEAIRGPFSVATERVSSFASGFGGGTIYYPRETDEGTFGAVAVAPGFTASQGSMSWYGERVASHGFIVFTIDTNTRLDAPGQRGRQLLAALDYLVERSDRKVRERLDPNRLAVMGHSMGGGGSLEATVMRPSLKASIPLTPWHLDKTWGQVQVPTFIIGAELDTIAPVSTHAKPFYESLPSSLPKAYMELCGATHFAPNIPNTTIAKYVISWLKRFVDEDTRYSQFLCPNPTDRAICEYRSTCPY [Cut190*SS]
0

Please look up its PET hydrolysis product formed: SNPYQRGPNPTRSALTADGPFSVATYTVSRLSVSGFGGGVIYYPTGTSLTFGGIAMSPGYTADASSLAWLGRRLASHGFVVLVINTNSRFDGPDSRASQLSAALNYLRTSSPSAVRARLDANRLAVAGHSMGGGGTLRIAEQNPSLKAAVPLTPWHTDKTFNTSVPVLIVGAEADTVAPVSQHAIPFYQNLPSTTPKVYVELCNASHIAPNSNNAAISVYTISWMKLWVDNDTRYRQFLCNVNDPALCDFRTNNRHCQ [LCC-ICCG]
0
